Recorded measurements of growth, one per entry
system: OVCAR-5 ovarian; assay: NCI-60 one-dose screen, 48 h (100 = growth as untreated, 0 = no growth, -100 = all killed); conditions: 10 µM unless noted
Compounds without any hit were thinned out: in the full panel of roughly 83,000, 20% have a hit.
Give the number; % is assumed, so skip it.

Illustrative cases are given below, each with its answer.
Cn1cc(-c2nc(-c3c[nH]c4ccncc34)cs2)c2cc(Br)ccc21; -94.1
O=C(CSc1nc2ccc([N+](=O)[O-])cc2[nH]1)Nc1cccc([N+](=O)[O-])c1; 82.6
CCN(CC)c1ccc(/C=N/NC(=O)c2ccc(Nc3ccnc(C(F)(F)F)c3)cc2)c(O)c1; 32.5
COC(=O)c1nc(-c2ccccc2)oc1S(=O)(=O)N1CCC(C(N)=O)CC1; 76.7

The value of growth measured for the molecule "CCN(CC)c1ccc(/C=N\NC(=O)c2cccc(Nc3ccnc(C(F)(F)F)c3)c2)c(O)c1" turned out to be 48.6

----------
tested on: MOLT-4 leukemia; assay: NCI-60 one-dose screen, 48 h; conditions: 10 µM unless noted
About 83,000 compounds went through this panel and 20% of them were active in at least one assay; those are over-represented in the sample as a whole. The source made the active and inactive calls. The calls were made as follows: active = growth percent below 10; inactive = the rest.
Result category, one only: 1.0 (active), 0.0 (inactive)

CN1C(=O)N(C)C2C1NC(=S)N2/N=C/C=C/c1ccccc1[N+](=O)[O-] (stereo not given); 0.0
Cc1ccc(/C=C(\C#N)C(=O)Nc2ncc(Cc3cc(Cl)ccc3Cl)s2)o1; 0.0
CCN1C(=O)N(CC)C2C1NN=C1SCC(=O)N12 (stereo not given); 0.0
Cn1ccnc1C(=O)/C=C/c1ccc(C(=O)Nc2ccc(F)cc2)cc1; 1.0
O=C(CN1C(=O)NC2NC(=O)NC21)N/N=C/c1ccc(Cl)cc1Cl (stereo not given); 0.0
CCN(CC)CCNC(=O)c1ccc(-c2nc3ccc4[nH]ncc4c3c3c2CCCC3)cc1; 0.0
O=C(O)CCCn1c(SCc2c(Cl)cccc2Cl)nc2ccsc2c1=O; 0.0
O=C(NCc1ccccc1O)c1cccc2ccccc12; 0.0
O=C(Nc1cccc(NC(=O)C2CCCCC2)c1)c1ccccn1; 0.0
CCC/C(=N\NC(N)=O)C(OC)OC; 0.0

Qu. # lookup: test call for "N#Cc1c(-c2ccccc2)cc(-c2ccccc2)n(CCCC(=O)NO)c1=O"
Ans. 0.0

Qu. For this compound, state the assay outcome: "CN1CCN(Cc2cc(NC(=O)c3cccc(C#Cc4cccc5[nH]nc(N)c45)c3)cc(C(F)(F)F)c2)CC1"
Ans. 1.0

Qu. Outcome? "Brc1ccc(-c2cnc3nonc3n2)cc1"
Ans. 0.0

Qu. Look up the recorded call for CCN1C(=S)N(CC)C2C1NC(=S)N2/N=C/C=C/c1ccccc1OC (stereo not given) in this test.
Ans. 0.0

Qu. How was "COc1ccc(/C(C)=C(\c2ccc(OCCN3CCCCCC3)cc2)c2ccc(OC(=O)c3ccccc3)cc2)cc1" classified in this test?
Ans. 0.0

Qu. Which result was noted for this compound in the test: "CCOC(=O)c1c(C)c2c(n1C)CSc1cc(S(=O)(=O)c3ccccc3)c(=O)[nH]c1-2"
Ans. 0.0

Qu. Test call, this compound: "C(/C=C/c1ccccc1)=Nc1ccc(CCc2ccc(N=C/C=C/c3ccccc3)cc2)cc1"
Ans. 0.0

Data provenance: PubChem BioAssay (NCI)
